ASSAYED_SYSTEM: BRAF V600E (Homo sapiens, UniProt P15056, V600E)
Construct: endogenous C-terminal HiBiT fusion tag on BRAF V600E allele; endogenous in cells; host or cells: A375 clone 1F10 (CRISPR-Cas9 knock-in of the HiBiT tag; parental A375 from ATCC)
Sequence (P15056 whole entry V600E, the tested form may be a part): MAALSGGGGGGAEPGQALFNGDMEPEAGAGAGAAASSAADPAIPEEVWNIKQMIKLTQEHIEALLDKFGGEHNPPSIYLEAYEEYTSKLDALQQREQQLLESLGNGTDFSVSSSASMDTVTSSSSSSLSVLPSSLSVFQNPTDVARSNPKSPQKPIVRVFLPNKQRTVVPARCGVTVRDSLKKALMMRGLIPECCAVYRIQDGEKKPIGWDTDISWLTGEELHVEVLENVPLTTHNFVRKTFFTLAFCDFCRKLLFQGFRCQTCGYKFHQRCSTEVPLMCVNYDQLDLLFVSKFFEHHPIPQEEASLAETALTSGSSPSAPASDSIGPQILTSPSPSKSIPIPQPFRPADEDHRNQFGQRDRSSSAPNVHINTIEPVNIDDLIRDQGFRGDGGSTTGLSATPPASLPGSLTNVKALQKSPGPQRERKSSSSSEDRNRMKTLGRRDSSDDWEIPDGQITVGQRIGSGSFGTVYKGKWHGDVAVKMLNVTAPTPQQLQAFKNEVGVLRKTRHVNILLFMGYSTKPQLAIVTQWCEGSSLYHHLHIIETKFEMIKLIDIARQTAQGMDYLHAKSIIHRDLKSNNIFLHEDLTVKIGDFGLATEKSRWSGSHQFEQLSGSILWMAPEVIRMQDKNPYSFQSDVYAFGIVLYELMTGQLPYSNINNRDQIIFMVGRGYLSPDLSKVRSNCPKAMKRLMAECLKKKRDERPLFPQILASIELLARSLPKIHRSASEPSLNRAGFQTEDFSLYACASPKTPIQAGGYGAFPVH
PROTOCOL_SUMMARY: BRAF HiBiT degradation assay, C-terminal HiBiT-tagged BRAF V600E A375 cells (clone 1F10), Nano-Glo HiBiT Lytic assay
Assay type: cell-based
CONDITIONS: A-375; A375 (BRAF V600E); percentage protein degraded at maximal compound effect relative to DMSO
Description: An A375 cell line expressing a homozygous V600E mutation was purchased from ATCC (Manassas, VA, USA). […] HiBiT signal was measured by a Nano-Glo HiBiT Lytic assay (Promega cat. no. N3050). […] Luminesce units (LU) were read on an EnVision plate reader 2105 (Perkin Elmer). Percent protein remaining and viability remaining per sample were calculated as follows: […]
REPORTED_ENDPOINT: Dmax

Exercise: Consider the compound CCN(C)S(=O)(=O)Nc1cccc(-c2nc(C3CCN(C(=O)C4CCN(C(=O)C5CCN(c6ccc(C7CCC(=O)NC7=O)cn6)CC5)CC4)CC3)sc2-c2ccnc(N)n2)c1F (racemic) [Compound 209] . State its measured Dmax.
Solution: > 70%

Exercise: For the compound CCCS(=O)(=O)Nc1cccc(-c2nc(C(C)(C)C)sc2-c2ccnc(Nc3ccc4c(c3)CCN(C(=O)[C@@H]3CCN(c5ccc(C6CCC(=O)NC6=O)cn5)C3)C4)n2)c1F (mixture of isomers) [Compound 121] , give its measured Dmax value.
Solution: 30 to 70%

Exercise: For the compound CCCS(=O)(=O)Nc1cccc(-c2nc(-c3ccc(N4CCN(CC5CCN(c6ccc(C7CCC(=O)NC7=O)cn6)CC5)CC4)cc3)sc2-c2ccnc(N)n2)c1F (racemic) [Compound 187] , give its measured Dmax value.
Solution: > 70%

Exercise: Please give the documented Dmax of CCN(C)S(=O)(=O)Nc1cccc(-c2nc(C(C)(C)C)sc2-c2ccnc(Nc3ccc(N4CCN(CC5CCN(c6ccc([C@H]7CCC(=O)NC7=O)cn6)CC5)CC4)cn3)n2)c1F [Compound 29]
Solution: > 70%

Exercise: Read the entry CCCS(=O)(=O)Nc1cccc(-c2nc(C)sc2-c2ccnc(Nc3ccc(C4CCN(CC5CCN(c6ccc([C@H]7CCC(=O)NC7=O)cc6)CC5)CC4)cc3)n2)c1F [Compound 63] and write its reported Dmax.
Solution: > 70%

Exercise: Using known records, supply Dmax for CCCS(=O)(=O)Nc1cccc(-c2nc(C(C)(C)C)sc2-c2ccnc(NC3CC4(CCN(CC5CCN(c6ccc7c(=O)n(C8CCC(=O)NC8=O)ccc7c6)CC5)CC4)C3)n2)c1F (racemic) [Compound 129]
Solution: 30 to 70%

Exercise: Annotate the compound CCCS(=O)(=O)Nc1cccc(-c2nc(C(C)(C)C)sc2-c2ccnc(Nc3cccc(OC4CCN(C(=O)CN5CCN(c6cc(C7CCC(=O)NC7=O)ccn6)CC5)CC4)c3)n2)c1F (racemic) [Compound 93] with its measured Dmax.
Solution: 30 to 70%

Exercise: Give the measured Dmax for CCCS(=O)(=O)Nc1cccc(-c2nc(C(C)(C)C)sc2-c2ccnc(Nc3cccc(OC4CCN(CC5(C)CCN(c6ccc(C7CCC(=O)NC7=O)cn6)CC5)CC4)c3)n2)c1F (racemic) [Compound 68]
Solution: > 70%

Exercise: For CCCS(=O)(=O)Nc1cccc(-c2nc(C(C)(C)C)sc2-c2ccnc(Nc3ccc(C4CCN(C(=O)CN5CCC6(CC5)CN(c5ccc7c(c5)C(=O)N(C5CCC(=O)NC5=O)C7=O)C6)CC4)cc3)n2)c1F (racemic) [Compound 153] , write its Dmax.
Solution: 30 to 70%

Exercise: Assign Dmax to the following record: CCCS(=O)(=O)Nc1cccc(-c2nc(C(C)(C)C)sc2-c2ccnc(Nc3ccc(C4CCN(C(=O)[C@@H]5CCN(c6ccc(C7CCC(=O)NC7=O)cn6)C5)CC4)cc3)n2)c1F (mixture of isomers) [Compound 164]
Solution: > 70%

Exercise: Using known records, supply Dmax for CCCS(=O)(=O)Nc1cccc(-c2nc(C(C)(C)C)sc2-c2ccnc(Nc3cccc(OC4CCN(CC[C@@H]5CCN(c6ccc(C7CCC(=O)NC7=O)cn6)C5)CC4)c3)n2)c1F (mixture of isomers) [Compound 70]
Solution: 30 to 70%

Exercise: Report measured Dmax; entry is CCCS(=O)(=O)Nc1cccc(-c2nc(C)sc2-c2ccnc(Nc3ccc(C4CCN(C(=O)CC5CCN(c6ccc(NC7CCC(=O)NC7=O)cc6)CC5)CC4)cc3)n2)c1F (racemic) [Compound 44]
Solution: > 70%

Exercise: State its Dmax for this compound: CCCS(=O)(=O)Nc1cccc(-c2nc(C(C)(C)C)sc2-c2ccnc(Nc3ccc(C4CCN(C(=O)C5CCN(c6cc(C7CCC(=O)NC7=O)ccn6)CC5)CC4)cc3)n2)c1F (racemic) [Compound 163]
Solution: 30 to 70%

Exercise: Look up and state reported Dmax for CCCS(=O)(=O)Nc1cccc(-c2nc(C(C)(C)C)sc2-c2ccnc(Nc3ccc(C4CCN(CC5CCN(c6cncc(C7CCC(=O)NC7=O)c6)CC5)CC4)cc3)n2)c1F (racemic) [Compound 177]
Solution: > 70%

Exercise: Determine from records and report Dmax for CCN(C)S(=O)(=O)Nc1cccc(-c2nc(C(C)(C)C)sc2-c2ccnc(Nc3ccc(N4CCN(CC5CCN(c6ccc([C@@H]7CCC(=O)NC7=O)cc6)CC5)CC4)cn3)n2)c1F [Compound 127]
Solution: > 70%

Exercise: Please give the documented Dmax of CCCS(=O)(=O)Nc1cccc(-c2nc(C(C)(C)C)sc2-c2ccnc(NC3CC4(CCN(C(=O)CN5CCC(c6ccc(NC7CCC(=O)NC7=O)cc6)CC5)CC4)C3)n2)c1F (racemic) [Compound 131]
Solution: > 70%

Exercise: Specify Dmax for CCCS(=O)(=O)Nc1cccc(-c2cn(-c3ccc(C(=O)N4CCN(CC5CCN(c6ccc([C@H]7CCC(=O)NC7=O)cc6)CC5)CC4)cc3)nc2-c2ccncc2)c1F [Compound 11] and stop.
Solution: 30 to 70%

Exercise: Output measured Dmax for this item: CCCS(=O)(=O)Nc1cccc(-c2nc(C)sc2-c2ccnc(Nc3ccc(C4CCN(C(=O)C5CCN(c6ccc(C7CCC(=O)NC7=O)cn6)CC5)CC4)cc3)n2)c1F (racemic) [Compound 55]
Solution: > 70%

Exercise: Give the value of Dmax reported for the following: CCCS(=O)(=O)Nc1cccc(-c2nc(C(C)(C)C)sc2-c2ccnc(Nc3cccc(OC4CCN(C(=O)[C@H]5CC[C@H](Oc6ccc(C7CCC(=O)NC7=O)cn6)CC5)CC4)c3)n2)c1F (mixture of isomers) [Compound 97]
Solution: > 70%
